systemUnderTest: T1, human IL-2Rα (human, UniProt P01589 22-240, limits assumed)
T1 construct: recombinant protein; also called hu IL-2R; human IL-2Ra
T1 sequence: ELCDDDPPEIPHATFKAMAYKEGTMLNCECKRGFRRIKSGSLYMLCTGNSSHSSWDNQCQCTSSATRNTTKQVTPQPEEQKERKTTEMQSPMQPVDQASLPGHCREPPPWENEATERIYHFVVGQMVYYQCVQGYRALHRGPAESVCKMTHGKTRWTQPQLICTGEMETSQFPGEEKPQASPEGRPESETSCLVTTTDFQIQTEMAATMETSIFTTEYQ
experimentalProtocol: ELISA, P.E. on coated antigen
parameter: OD (PE binding ELISA) (OD450 nm)
Unit OD450 nm implied. Number only.

INSERT INTO assay_data (binder, outputunit, valuereported) VALUES
  ('FJ1427_P035MP01G10 (VHH, periplasmic extract; also called clone nr; 79) VHH: EVQLVESGGGLVQAGGSLRLSCAASGGAFSRYAVGWFRMAPGKGREFVSAIDLSGTNTHVLDSVKGRFTISRDNDKNTAYLQMDKLQPEDTAVYWCAATSSSYSDYEANYNIWGQGTQVTVSS', 'OD450 nm', 2.75),
  ('FJ1427_P035MP01H10 (VHH, periplasmic extract; also called clone nr; 80) VHH: QVQLVESGGGLVETGGSLRLSCAASGITFNDHTMAWFRQAPGKEREFVAARDWSDIITRYASSVKGRFTISRDNAGNTGFLQMNSLRPEDTAVYYCAAREGGVVAGVRSGAPYDYWGQGTQVTVSS', 'OD450 nm', 2.47),
  ('FJ1427_P035MP01E02 (VHH, periplasmic extract; also called clone nr; 13) VHH: QVQLVESGGGLVQAGDSLRLSCAASGRSFRNYILAWYRQAPGKEREFLAAISWLDGTLYADSVEDRFTISRDNPKNTVHLQMDNLKPEDTAVYYCAADRGPVRPVLAPDVDYWGQGTQVTVSS', 'OD450 nm', 2.86);

Now turn to the next binder.
Kindly note the recorded OD (PE binding ELISA) for FJ1427_P035MP01D03 (VHH, periplasmic extract; also called clone nr; 20) VHH: EVQLVESGGGLVQPGGSLRLSCATSGFTFRNNFMSWVRQAPGEGLEWVSTISYGGESTTYAESVKGRFTISRDNAKNTLYLQMNNLKPEDTAVYYCAKATSYDSIRSGSRGQGTQVTVSS , which is 2.59
